# Test system: T-47D breast
# test_protocol: NCI-60 one-dose screen, 48 h
# condition_details: 10 µM unless noted
Compounds without any hit were thinned out: in the full panel of roughly 83,000, 20% have a hit. Calls of active or inactive are those of the source. Rule for the calls: active = growth percent below 10; inactive = the rest.
Outcomes: 1 (yes) for active, 0 (no) for inactive

{"smiles_notation": "O=C(O)c1cccc2c1-c1ccccc1C2=O", "class_name": "0 (no)"}
{"smiles_notation": "COCCCNc1nc(NC(=O)c2ccc(F)cc2C)cc(-c2cccnc2)n1", "class_name": "0 (no)"}
{"smiles_notation": "C=C(C[n+]1ccccc1)[C@@H]1CC[C@]2(C(=O)OC)CC[C@]3(C)[C@H](CC[C@@H]4[C@@]5(C)CC[C@H](O)C(C)(C)[C@@H]5CC[C@]43C)[C@@H]12", "class_name": "0 (no)"}
{"smiles_notation": "COc1ccc(-c2c3c(nc4n[nH]c(-c5ccc(Cl)cc5)c24)-c2ccccc2C(=O)C3=O)cc1", "class_name": "0 (no)"}
{"smiles_notation": "CC/C(Cc1ccccc1)=C(/c1ccc(O)cc1)c1ccc(OCCN2CCCC2)cc1", "class_name": "1 (yes)"}
{"smiles_notation": "CCCCCCNC(=O)Oc1ccc(/C(=C(\\C)c2ccccc2)c2ccc(OCCN(CC)CC)cc2)cc1", "class_name": "0 (no)"}
{"smiles_notation": "COc1cc(-c2cc(-c3nc4ccc(Cl)cc4[nH]3)[nH]n2)cc(OC)c1OC", "class_name": "1 (yes)"}
{"smiles_notation": "O=C1c2ccccc2-c2nccc3cc(Cl)nc1c23", "class_name": "1 (yes)"}
{"smiles_notation": "COc1ccc(Cl)cc1Nc1nc(C(F)(F)F)ccc1C(=O)N/N=C/c1cccnc1", "class_name": "0 (no)"}

###

# System: UO-31 renal
# test_protocol: NCI-60 one-dose screen, 48 h
# condition_details: 10 µM unless noted
# Experimental: Growth inhibition of the UO-31 human tumor cell line is measured as a screen for anti-cancer activity. Cells are grown in 96 well plates and exposed to the test compound for 48 hours. Compounds are tested at a single concentration, which is 10^-5 M for most compounds. The reported endpoint is percent growth (GI% or GIPRCNT), where numbers from 0 - 100% represent growth inhibition, and numbers from -100% - 0 represent cell death. For example, a value of 40 represents 60% growth inhibition. […]
About 83,000 compounds went through this panel and 20% of them were active in at least one assay; those are over-represented in the sample as a whole. Active and inactive are the calls of the source. Rule for the calls: active = growth percent below 10; inactive = the rest.
Possible outcomes: YES (active), NO (inactive)

{"compound": "CC(C)[C@@H]1CC[C@]2(C(=O)NCCCCN=C(N)N)CC[C@]3(C)[C@H](CC[C@@H]4[C@@]5(C)CCC(=O)C(C)(C)[C@@H]5CC[C@]43C)[C@@H]12", "target_or_test_system": "UO-31 renal", "class_name": "NO"}
{"compound": "C=CC[N+]1(CCO)CCN=C1CCCCCCCCCCCCC (stereo not given)", "target_or_test_system": "UO-31 renal", "class_name": "YES"}
{"compound": "Brc1cccc(-c2nc(-c3ccc4c(c3)OCCO4)co2)c1", "target_or_test_system": "UO-31 renal", "class_name": "NO"}
{"compound": "COCCOC(=O)C1=C(C)NC(=S)NC1c1ccc2c(c1)OCO2 (stereo not given)", "target_or_test_system": "UO-31 renal", "class_name": "NO"}
{"compound": "C=C1CC2(OC1=O)C(=O)Nc1ccccc12 (stereo not given)", "target_or_test_system": "UO-31 renal", "class_name": "NO"}
